Values were extracted from the supplement of paper PMC10567573.

# ASSAY: protein stability index of a GFP-peptide fusion (GPS, HEK-293T) (PSI 1-6); higher = more stable;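 also: 24-mer peptide tiles fused after GFP, lentivirally expressed, FACS-sorted into six equal bins by GFP/DsRed ratio, decoded by Illumina sequencing, PSI is the read-weighted mean bin number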
# CONDITION_DETAILS: treatment: MLN4924 1 uM, 8 h; c terminus: a fixed tail appended
Response key: true means protein stability index >= 3; false means protein stability index < 3.

| ORDERED_RESIDUES | CAT |
| --- | --- |
| ADKMTAEEVDQMFQFASIDVAGNL [MYL5] | true |
| EQLAALSQAPVNKPKKKKEKKEKE [BRD3] | true |
| VRRGLAGATTLGDMIYVSGGFDGS [KLHL12] | false |
| RMTSAAHYYPKLMSIMGNVLRFLP [GFOD1] | false |
| PAGERRIYRHRIPSTICFGQGAAR [ZNF511] | true |
| NLSKTQNMERFGEDNLEDDDVEMK [CDC14A] | true |
| AVSTEDLKECLKKQLEFCFSRENL [LARP4] | true |
| ETSVFDQFGIKDVFDNAIRAALIS [RHOBTB1] | false |
| PCSEFMEPSSDPSLLGEPCAGPGF [SPAG8] | true |
| EEAVTVLEDLESELDDPGQPVSLR [ZNF24] | true |
| EYDYLFKVVLIGDSGVGKSNLLSR [RAB11A] | false |
| IQKNKLKLTREQEELEEALEVERQ [MNAT1] | true |
| YLQDHEKKLRLVFKSLDKKNDGRI [SLC25A25] | true |
| VDTLNVKDIAPEKQLLNSAVIAQQ [DLC1] | true |
| EQLGSGDGIPQVYYFGPCGKYNAM [CSNK1G3] | false |
| LPLDDQVALLRAHAGEHLLLGATK [HNF4A] | true |
| DNIREAFQIYDKEASGYVDRDMFF [EFHC1] | true |
| NGWTCLHWACKRNHGQVVSYLLKS [ANKRD40] | false |
| LIFHRHPVAQSTDAIRGKVGYTRG [SPSB1] | false |
| LGDRLNVEVDTAPTVDLNQVLNET [KRT34] | true |
| LPGNTTEATPRSLRASGSLCGPHA | true |
| ILINNGSRIKGWWVFHHYVSTFLS [TMEM120A] | false |
| LFLLLGHGASPGLRDGGGLTPLEL [ANKRD9] | false |
| RKAALEQDLAFWYGPRWQEVIPYT [HMOX1] | false |
| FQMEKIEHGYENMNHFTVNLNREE [TRIM55] | true |

* * *

# ASSAY: protein stability index of a GFP-peptide fusion (GPS, HEK-293T) (PSI 1-6); higher = more stable
# CONDITION_DETAILS: treatment: DMSO; c terminus: a fixed tail appended
MEASURED_PROPERTY: protein stability index

| ORDERED_RESIDUES | EXPERIMENTAL_RESULT |
| --- | --- |
| QSDVGVAVFENKIYVVGGYSWNNR [KLHL13] | 2.19 |
| EWFQNCYARYHQAFADRDQSERQR [TEKT4] | 3.41 |
| AAGMRFPLPEAIDPDVGVNSLQSY [PCDHGA10] | 3.9 |
| DQFIPIWTVANMEEIKKLTTDPDL [LARP4] | 3.97 |
| EAVESTLQTPLDIRLKESINCQLS [TRIM14] | 4.38 |
| GWRSLWLGWGPTALRDVPFSALYW [SLC25A39] | 2.22 |
| IEKCTTPLSDDHDEKYGVPSLEEL [CRY1] | 5.11 |
